The origin of these recorded values is patent US6759408B2.

quantityName: melting point

// solved cases for melting point follow
{"molecule": "CC1(C)OC(=O)Nc2ccc(-c3cccc(Cl)c3)cc21", "melting point": "158 to 159 °C"}
{"molecule": "O=C1Nc2ccc(-c3cc(F)cc(Br)c3)cc2C(C2CC2)(C2CC2)O1", "melting point": "228 to 229 °C"}
{"molecule": "CC#CC1(C)OC(=O)Nc2ccc(-c3cccc(Cl)c3)cc21 (stereo not shown)", "melting point": "184 to 185 °C"}

In: Query: melting point; subject: Cc1cc(C#N)sc1-c1ccc2c(c1)C(C)(C)OC(=O)N2
Out: 195 to 200 °C

In: Query: melting point; subject: CC1(C)OC(=O)Nc2ccc(-c3csc(C#N)c3)cc21
Out: 230 to 231 °C (dec.)

In: Query: melting point; subject: CC1(C)OC(=O)Nc2ccc(-c3cc(F)cc(-c4ccsc4)c3)cc21
Out: 200 to 203 °C

In: Query: melting point; subject: CC1(C)OC(=O)Nc2ccc(-c3cc(C#N)cc(C#N)c3)cc21
Out: 288 to 289 °C

In: Query: melting point; subject: Cc1cc(C#N)sc1-c1ccc2c(c1)C1(CCCCC1)OC(=O)N2
Out: 200 to 203 °C

In: Query: melting point; subject: CC1(C)OC(=O)Nc2ccc(-c3cccc(C#CC#N)c3)cc21
Out: 212 to 213 °C

In: Query: melting point; subject: CCC1(CC)OC(=O)Nc2ccc(-c3cccc([N+](=O)[O-])c3)cc21
Out: 193 to 194 °C

In: Query: melting point; subject: CC1(C)OC(=O)Nc2ccc(-c3cccc(S(N)(=O)=O)c3)cc21
Out: 242 to 244 °C (dec.)

In: Query: melting point; subject: O=C1Nc2ccc(-c3cccc(Cl)c3)cc2C(C2CC2)(C2CC2)O1
Out: 198 to 200 °C

In: Query: melting point; subject: CC1(C)OC(=O)Nc2ccc(-c3coc(C#N)c3)cc21
Out: 255 to 256 °C

In: Query: melting point; subject: C#CC1(C)OC(=O)Nc2ccc(-c3cccc(Cl)c3)cc21 (stereo not shown)
Out: 185 to 186 °C

In: Query: melting point; subject: CC1(C)OC(=O)Nc2ccc(-c3cncc(C#N)c3)cc21
Out: 290 to 291 °C

In: Query: melting point; subject: CC1(C)OC(=O)Nc2ccc(-c3sccc3C#N)cc21
Out: 200 to 202 °C

In: Query: melting point; subject: CC1(C)OC(=O)Nc2ccc(-c3cccc(C#N)c3)cc21
Out: 236 to 237 °C

In: Query: melting point; subject: CC(C)(C)OC(=O)n1cccc1-c1ccc2c(c1)C(C)(C)OC(=O)N2
Out: 176 °C

In: Query: melting point; subject: Cc1cc(C#N)cc(-c2ccc3c(c2)C(C)(C)OC(=O)N3)c1
Out: 256 to 258 °C
